Biological target: Ras and Rab interactor 1/Tyrosine-protein kinase ABL1 (Homo sapiens, UniProt P00519+Q13671);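 also: biochemical TR-FRET dose-response test measuring inhibition of binding between Rin1 and Abl proteins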
Sequence (P00519 whole entry): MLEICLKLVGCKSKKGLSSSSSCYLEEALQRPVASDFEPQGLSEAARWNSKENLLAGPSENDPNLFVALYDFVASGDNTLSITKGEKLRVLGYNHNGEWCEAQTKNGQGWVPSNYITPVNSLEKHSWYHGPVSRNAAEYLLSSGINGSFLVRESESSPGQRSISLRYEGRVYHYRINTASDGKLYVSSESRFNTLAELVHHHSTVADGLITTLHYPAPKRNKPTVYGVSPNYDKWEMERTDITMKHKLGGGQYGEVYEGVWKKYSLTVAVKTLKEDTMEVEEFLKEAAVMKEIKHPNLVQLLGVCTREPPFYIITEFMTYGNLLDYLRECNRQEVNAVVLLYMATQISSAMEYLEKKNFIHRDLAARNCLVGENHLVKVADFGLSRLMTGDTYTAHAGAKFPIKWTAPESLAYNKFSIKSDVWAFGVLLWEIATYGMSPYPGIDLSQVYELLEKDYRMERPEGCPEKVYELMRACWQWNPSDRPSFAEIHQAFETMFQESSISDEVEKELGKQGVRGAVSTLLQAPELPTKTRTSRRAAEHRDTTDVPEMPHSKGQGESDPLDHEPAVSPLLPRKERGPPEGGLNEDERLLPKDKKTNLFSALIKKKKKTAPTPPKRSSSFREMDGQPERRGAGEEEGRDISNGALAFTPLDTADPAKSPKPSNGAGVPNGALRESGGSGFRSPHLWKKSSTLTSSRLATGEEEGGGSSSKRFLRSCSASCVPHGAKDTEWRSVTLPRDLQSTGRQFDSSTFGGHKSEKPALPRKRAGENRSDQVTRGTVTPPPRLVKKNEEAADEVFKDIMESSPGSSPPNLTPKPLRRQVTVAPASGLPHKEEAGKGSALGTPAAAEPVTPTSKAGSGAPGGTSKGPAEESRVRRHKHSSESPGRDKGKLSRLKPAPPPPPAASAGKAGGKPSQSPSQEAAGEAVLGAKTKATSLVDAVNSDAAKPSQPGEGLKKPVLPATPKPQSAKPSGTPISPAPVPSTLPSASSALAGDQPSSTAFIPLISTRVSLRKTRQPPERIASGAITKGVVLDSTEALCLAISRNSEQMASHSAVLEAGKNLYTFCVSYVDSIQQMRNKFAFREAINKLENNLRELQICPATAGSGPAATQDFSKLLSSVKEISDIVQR
Sequence (Q13671 whole entry): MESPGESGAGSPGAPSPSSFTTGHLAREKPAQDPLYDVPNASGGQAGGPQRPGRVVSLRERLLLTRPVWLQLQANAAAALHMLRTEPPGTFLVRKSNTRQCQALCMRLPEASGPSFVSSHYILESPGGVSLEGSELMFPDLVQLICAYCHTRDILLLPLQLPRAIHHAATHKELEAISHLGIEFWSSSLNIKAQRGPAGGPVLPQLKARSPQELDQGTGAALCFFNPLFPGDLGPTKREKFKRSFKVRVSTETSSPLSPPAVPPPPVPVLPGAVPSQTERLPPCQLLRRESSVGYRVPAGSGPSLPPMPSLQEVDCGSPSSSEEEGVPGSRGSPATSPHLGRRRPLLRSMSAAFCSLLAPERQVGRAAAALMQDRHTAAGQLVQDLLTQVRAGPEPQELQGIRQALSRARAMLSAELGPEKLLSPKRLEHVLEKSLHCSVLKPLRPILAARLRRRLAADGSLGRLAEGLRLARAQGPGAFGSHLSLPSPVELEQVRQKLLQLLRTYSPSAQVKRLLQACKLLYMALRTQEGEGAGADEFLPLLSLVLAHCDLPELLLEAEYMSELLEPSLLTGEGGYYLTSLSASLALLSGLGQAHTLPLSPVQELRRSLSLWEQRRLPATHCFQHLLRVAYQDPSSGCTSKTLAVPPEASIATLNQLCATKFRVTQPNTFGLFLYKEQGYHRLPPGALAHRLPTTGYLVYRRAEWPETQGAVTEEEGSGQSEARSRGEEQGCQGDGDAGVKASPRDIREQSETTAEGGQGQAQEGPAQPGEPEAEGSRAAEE
Assay type: functional
The source made the active and inactive calls.
Endpoint name: IC50

# annotated cases, reported IC50 shown
INSERT INTO measurements (compound, endpoint_name, meas_value) VALUES
  ('COc1ccc(CN(C)CCCn2ccc(NC(=O)OCc3ccccc3)nc2=O)cc1OC', 'IC50', '23.5 µM (inactive)'),
  ('Oc1ccc(C[C@H]2NCCc3cc(O)c(O)cc32)cc1O', 'IC50', '2.33 µM (active)'),
  ('CCCCN1C(=O)NC2NC(=O)NC21 (stereo not given)', 'IC50', '0.905 µM (active)'),
  ('Oc1ccc(/C=N/N2CCOCC2)c(O)c1O', 'IC50', '> 73.5 µM (inactive)');

Turning now to a further record.
## Task For the compound COc1ccccc1N(C(=O)c1snc(C(N)=O)c1N)C(C(=O)NCc1ccccc1)c1ccc(O)cc1 (stereo not given) , what IC50 is on record?
## Result 50 µM (inactive)

Where do these numbers come from? They come from ChEMBL document CHEMBL1201862.
